# ASSAY OVERVIEW: gradient 5% acetonitrile 3 min, to 50% in 2 min, to 85% in 15 min, held 3 min, 100 µL/min
# CONDITION SUMMARY: column: Zorbax Extend-C18 2.1 x 50 mm; eluents: water / acetonitrile, 0.1% formic acid
QUANTITY KIND: RP-LC retention time (s)

Reference set (10 entries):
In [3]: df
Out[3]:
                                   molecule  unit_tag  test_result
0  CCOc1ccc(N2CC(c3nc(-c4cccc(OC)c4OC)no3)CC2=O)cc1 (centres undefined)         s          922
1  CCN1CCN(C(=O)C2CCc3sc(C(=O)N(CC)CC)cc3C2)CC1 (centres undefined)         s          683
2   CCn1c(CCNC(=O)c2ccc3ccccc3n2)nc2cccnc21         s          685
3  CCOc1ccc(/C=C/C(=O)Nc2nc(-c3ccc4c(c3)N(C)C(=O)CO4)cs2)cc1OC         s          985
4  O=C(NCc1ccc(F)cc1F)C1CCCN(c2nc3ccsc3c(=O)n2Cc2ccccc2)C1 (centres undefined)         s          938
5  Cc1ccc(S(=O)(=O)N2C[C@@H]3C[C@H]2C[C@@H]3NC(=O)c2cccs2)cc1Cl         s          992
6  Cc1noc(C)c1CN1CCCCC1c1nc(-c2ccncc2)no1 (centres undefined)         s          649
7  O=C(NC1CCN(c2cc(-c3ccc(F)cc3)[nH]n2)CC1)C1COc2ccccc2O1 (centres undefined)         s          824
8     CC(C)(C)C(=O)Nc1cnc(-c2ccc(Cl)cc2)nc1         s         1060
9  CCOc1ccc(S(=O)(=O)N2CCCC(C(=O)NCCCOC)C2)cc1C (centres undefined)         s          847

P. COc1ccc(-c2csc(Cc3nc(-c4ccc(C)cc4)no3)n2)cc1
Q. CSc1ccc(NC(=O)c2cn3c(n2)COCC3)cc1
Data request: Short answer wanted: higher RP-LC retention time, P or Q ? Which one? Tell me its label.
Data returned: P

a. CC(C)(C)c1ccc(-c2noc(-c3nn(-c4cccc(F)c4)ccc3=O)n2)cc1
b. COc1ccc(N2C=C(C(=O)N3CCOCC3)S(=O)(=O)c3ccc(F)cc32)cc1OC
Data request: Short answer wanted: higher RP-LC retention time, a or b ? Which one? Tell me its label.
Data returned: a

I. Cc1cc2nn(CC(=O)Nc3cc(F)cc(F)c3)c(=O)n2c(Nc2ccc(F)c(C)c2)n1
II. COc1ccc(CCC(=O)NCCc2cn(C)c3ncccc23)cc1
Data request: Short answer wanted: higher RP-LC retention time, I or II ? Which one? Tell me its label.
Data returned: I
(I: 1070 s, II: 669 s)

====

# ASSAY OVERVIEW: gradient 5% acetonitrile 3 min, to 50% in 2 min, to 85% in 15 min, held 3 min, 100 µL/min
# CONDITION SUMMARY: column: Zorbax Extend-C18 2.1 x 50 mm; eluents: water / acetonitrile, 0.1% formic acid
QUANTITY KIND: RP-LC retention time (s)

Reference set (5 entries):
>>> print(df.to_string())
                                   compound  test_result
0  CC(C)n1c(C2CCN(C(=O)Nc3ccc(Cl)cc3F)C2)nc2ccncc21 (stereo not given)          567
1  Cc1ccc(-c2cc3c4nnc(SCC(=O)Nc5ccccc5F)n4ccn3n2)cc1C          985
2  CCCN(CCC)C(=O)C1COC2(CCN(C(=O)c3ccco3)CC2)N1C(=O)c1ccccc1 (stereo not given)          778
3    Cc1ccn2c(Nc3ccccc3C)c(-c3ccccc3O)nc2c1          701
4  CCOC(=O)c1[nH]c(C)c(CCC(=O)N2CCC(C(=O)NCc3ccccc3Cl)CC2)c1C          808

I. CC(C(=O)N1CCC(N2CCc3ccccc32)CC1)c1ccccc1 (stereo not given)
II. NC(N)=NCCC[C@H](NC(=O)c1sccc1NS(=O)(=O)c1cccc2nsnc12)C(=O)O
Data request: Short answer wanted: higher RP-LC retention time, I or II ? Which one? Tell me its label.
Data returned: I
(I: 1010 s, II: 685 s)

a. COc1ccccc1NC(=O)C1CCN(S(=O)(=O)c2ccc3[nH]c(=O)ccc3c2)CC1
b. COc1ccc(NC(=O)c2noc3c2CCCCC3)c(OC)c1
Data request: Short answer wanted: higher RP-LC retention time, a or b ? Which one? Tell me its label.
Data returned: b
(b: 1080 s, a: 734 s)

a. Cc1nc(-c2cn(C(C)C)c3ncccc23)sc1C(=O)NCc1ccco1
b. COCC1(O)CCOC2(CCN(Cc3ccc(C#N)cc3)CC2)C1 (stereo not given)
Data request: Short answer wanted: higher RP-LC retention time, a or b ? Which one? Tell me its label.
Data returned: a
